target: T1, Cynomolgus monkey BCMA (cynomolgus monkey); test: SPR, IgG immobilised, cyno BCMA analyte
T1 construct: Soluble analyte in SPR; also called cyBCMA; Cyno BCMA
measured.attribute: kon (M⁻¹ s⁻¹)
Give just the number in M⁻¹ s⁻¹; leave the unit off.

COMBO_Rd4_0.6nM_C05 (antibody, V domains shown, IgG) VH: EVQLLESGGGLVQPGGSLRLSCAASGFTFSSYAMNWVRQAPGKGLEWVSAIGGSGGSTYYADSVKGRFTISRDNSKNTLYLQMNSLRAEDTAVYYCARYWPMSLWGQGTLVTVSS VL: EIVLTQSPGTLSLSPGERATLSCRASQSVSSTYLAWYQQKPGQAPRLLMYDASIRATGIPDRFSGSGSGTDFTLTISRLEPEDFAVYYCQQYMSWPLTFGQGTKVEIK = 1.94e+06

Suppose we examine the binder COMBO_Rd4_6nM_C25 (antibody, V domains shown, IgG) VH: EVQLLESGGGLVQPGGSLRLSCAASGFTFSSYPMSWVRQAPGKGLEWVSAIGGSGGSTYYADSVKGRFTISRDNSKNTLYLQMNSLRAEDTAVYYCARYWPMDPWGQGTLVTVSS VL: EIVLTQSPGTLSLSPGERATLSCRASQSVSSPYLAWYQQKPGQAPRLLMYDASIRATGIPDRFSGSGSGTDFTLTISRLEPEDFAVYYCQQYQSWPLTFGQGTKVEIK ; what kon value has been reported? 2.85e+06

Then what about the binder COMBO_Rd4_6nM_C09 (antibody, V domains shown, IgG) VH: EVQLLESGGGLVQPGGSLRLSCAASGFTFSSYPMSWVRQAPGKGLEWVSAIFASGGSTYYADSVKGRFTISRDNSKNTLYLQMNSLRAEDTAVYYCARYWPMDSWGQGTLVTVSS VL: EIVLTQSPGTLSLSPGERATLSCRASQSVSAQYLAWYQQKPGQAPRLLMYDASIRATGIPDRFSGSGSGTDFTLTISRLEPEDFAVYYCQQYQAWPLTFGQGTKVEIK ? 2.37e+06

What do you get for C01_Rd4_6nM_C26 (antibody, V domains shown, IgG) VH: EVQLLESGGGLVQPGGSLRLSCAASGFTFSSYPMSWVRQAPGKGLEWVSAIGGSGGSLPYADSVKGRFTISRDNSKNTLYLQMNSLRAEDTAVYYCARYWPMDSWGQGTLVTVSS VL: EIVLTQSPGTLSLSPGERATLSCRASQSVSALYLAWYQQKPGQAPRLLIYDASSRAPGIPDRFSGSGSGTDFTLTISRLEPEDFAVYYCQQYSAWPLTFGQGTKVEIK ? 4.75e+06

What would you report for A02_Rd4_6nM_C03 (antibody, V domains shown, IgG) VH: EVQLLESGGGLVQPGGSLRLSCAASGFTFSSYAMNWVRQAPGKGLEWVSAISDSGGSTYYADSVKGRFTISRDNSKNTLYLQMNSLRAEDTAVYYCARYWPMDIWGQGTLVTVSS VL: EIVLTQSPGTLSLSPGERATLSCRASQSVSNLYLAWYQQKPGQAPRLLMYDASIRATGIPDRFSGSGSGTDFTLTISRLEPEDFAVYYCQQYQGWPLTFGQGTKVEIK ? 1.17e+06
